Experiment: chemical genetic growth profiling, strain panel (AID 1159580);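 note: tested at 20 µM; growth read once vehicle control cultures reached saturation at 30 °C; 1 = growth at the plate median or of vehicle wells; lower values mean less growth of the strain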
Settings: S. cerevisiae deletion strains, growth OD, locus YEL037C, strain rad23, active compounds read low
Among all 5,500 compounds or so, about 2,000 (36%) were called active. Roughly 18% stayed inconclusive and do not appear here. The list shows a part of the results.
Value kind: normalized growth

CC(C)(Sc1cc(C(C)(C)C)c(O)c(C(C)(C)C)c1)Sc1cc(C(C)(C)C)c(O)c(C(C)(C)C)c1    1.01 (inactive)
Nc1ccccc1C(=O)CC(N)C(=O)O (stereo unspecified)    1 (inactive)
CCCCCCCCCCCC[C@H](C(=O)O)[C@@H](C)C(=O)O    0.976 (inactive)

Prompt: Give the reported normalized growth for this compound. `O=c1ccc2ccc(O)cc2o1`
Response: 0.985 (inactive)

Prompt: Give the reported normalized growth for this compound. `NCCC(=O)N[C@@H](Cc1cnc[nH]1)C(=O)O`
Response: 1.01 (inactive)

Prompt: Give the reported normalized growth for this compound. COc1c(-c2coc3cc4c(cc3c2=O)CC(O)C(C)(C)O4)ccc2c1C=CC(C)(C)O2 (stereo unspecified)
Response: 0.973 (inactive)

Prompt: Give the reported normalized growth for this compound. `CC(C)(C#N)O[C@@H]1O[C@H](CO)[C@@H](O)[C@H](O)[C@H]1O`
Response: 1.01 (inactive)

Prompt: Give the reported normalized growth for this compound. COc1c(-c2coc3cc4c(cc3c2=O)CC(OC(C)=O)C(C)(C)O4)ccc2c1C=CC(C)(C)O2 (stereo unspecified)
Response: 1.02 (inactive)

Prompt: Give the reported normalized growth for this compound. CCOC(=O)OC(C)OC(=O)C1N2C(=O)C(NC(=O)[C@H](N)c3ccccc3)C2SC1(C)C (stereo partly specified)
Response: 0.987 (inactive)

----------
Assay: chemical genetic growth profiling, strain panel (AID 1159580)
Conditions: S. cerevisiae deletion strains, growth OD, locus YLR384C, strain iki3, active compounds read low
In all, about 5,500 compounds went through this assay and about 2,000 (36%) were called active. Roughly 18% stayed inconclusive and do not appear here. The list shows a part of the results.
Value kind: normalized growth
The response must contain the number and no unit.

Field: example entries. Status: answers known.
CC(C)(C#N)O[C@@H]1O[C@H](CO)[C@@H](O)[C@H](O)[C@H]1O    0.986
Cc1cc(O)cc(C)c1Cl    0.992
COC(=O)Nc1nc2ccc(Sc3ccccc3)cc2[nH]1    0.996
COC(=O)Nc1nc2ccc(C(=O)c3ccccc3)cc2[nH]1    1
C#C[C@]1(OC(C)=O)CCC2C3CCC4=CC(=O)CC[C@@H]4C3CC[C@@]21C (some centres undefined)    0.991
CC(=O)O[C@@H]1CC[C@@]2(C)C(CC[C@]3(C)C2CC=C2C4CC(C)(C)CC[C@]4(C(=O)O)CC[C@]23C)C1(C)C (some centres undefined)    0.981

Prompt: Give the reported normalized growth for this compound. `NCCC(=O)N[C@@H](Cc1cnc[nH]1)C(=O)O`
Response: 1.02

Prompt: Give the reported normalized growth for this compound. Cc1ccc(S(=O)(=O)NC(=O)NN2CC3CCCC3C2)cc1 (centres undefined)
Response: 0.993

Prompt: Give the reported normalized growth for this compound. `Cc1cn([C@H]2C[C@H](N=[N+]=[N-])[C@@H](CO)O2)c(=O)[nH]c1=O`
Response: 1

Prompt: Give the reported normalized growth for this compound. C#C[C@]1(OC(C)=O)CCC2C3CCC4=C/C(=N\O)CCC4C3CC[C@@]21CC (some centres undefined)
Response: 1.01

Prompt: Give the reported normalized growth for this compound. C#C[C@]1(O)CCC2C3CCC4=C(CCC(=O)C4)C3CC[C@@]21C (some centres undefined)
Response: 0.974

Prompt: Give the reported normalized growth for this compound. `C/C=C1\[C@H]2C=C(C)C[C@]1(N)c1ccc(=O)[nH]c1C2`
Response: 1.02

Prompt: Give the reported normalized growth for this compound. `C[C@@H]1C(=O)O[C@H]2[C@H]1CC[C@@]1(C)C=CC(=O)[C@@]3(C)O[C@@]213`
Response: 1

Prompt: Give the reported normalized growth for this compound. OC(CCN1CCCCC1)(c1ccccc1)C1CC2C=CC1C2 (centres undefined)
Response: 1.01

----------
Examples of compounds with documented normalized growth follow.
Assay: chemical genetic growth profiling, strain panel (AID 1159580);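 note: tested at 20 µM; growth read once vehicle control cultures reached saturation at 30 °C; 1 = growth at the plate median or of vehicle wells; lower values mean less growth of the strain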
Conditions: S. cerevisiae deletion strains, growth OD, locus YJR043C, strain POL32, active compounds read low
In all, about 5,500 compounds went through this assay and about 2,000 (36%) were called active. Roughly 18% stayed inconclusive and do not appear here. This is one part of the list.
The response must contain the number and no unit.

Nc1ccccc1C(=O)CC(N)C(=O)O (centres undefined)    1.01
O=[N+]([O-])c1ccc(S(=O)(=O)c2ccc(Cl)cc2)cc1O    0.832
S=c1[nH]nc(SCCSc2n[nH]c(=S)s2)s1    1.02
CC(C)CC(N(C)C)C1(c2ccc(Cl)cc2)CCC1 (centres undefined)    0.999
C[C@@H]1CC[C@H]2[C@@H](C)C(O)O[C@@H]3O[C@@]4(C)CC[C@@H]1[C@]32OO4 (some centres undefined)    0.369
O=C1C(O)=C(O)C(=O)C(O)=C1O    1.03
CC(=O)NCc1c(I)c(NC(C)=O)c(I)c(C(=O)O)c1I    0.982
O=C1ON=C(CSc2ccccc2)/C1=C/c1ccc(Cl)cc1    0.0516
COc1ccc(C(=O)CN2CCN(c3cc(C)nc4ccccc34)CC2)cc1    1
C#C[C@]1(O)CCC2C3CCC4=C(CCC(=O)C4)C3CC[C@@]21C (some centres undefined)    1.02

Prompt: Give the reported normalized growth for this compound. `NC12CC3CC(CC(C3)C1)C2`
Response: 0.986

Prompt: Give the reported normalized growth for this compound. C[C@@H]1OC(O[C@H]2[C@H](O)[C@@H](O)[C@H](OC[C@H]3O[C@@H](OC(=O)[C@]45CCC(C)(C)CC4C4=CCC6[C@@]7(C)CC[C@H](OC8OC[C@H](O)[C@H](O)[C@H]8OC8O[C@@H](C)[C@H](O)[C@@H](O)[C@H]8O)[C@@](C)(CO)C7CC[C@@]6(C)[C@]4(C)CC5)[C@H](O)[C@@H](O)[C@@H]3O)O[C@@H]2CO)[C@H](O)[C@H](O)[C@H]1O (some centres undefined)
Response: 1.02

Prompt: Give the reported normalized growth for this compound. `Nc1ccccc1C(=O)N/N=C\c1cccc2ccccc12`
Response: 1.01

Prompt: Give the reported normalized growth for this compound. Nc1c2ccccc2nc2ccccc12 (tested in a mixture with another compound)
Response: 0.686

----------
Experiment: chemical genetic growth profiling, strain panel (AID 1159580);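 note: tested at 20 µM; growth read once vehicle control cultures reached saturation at 30 °C; 1 = growth at the plate median or of vehicle wells; lower values mean less growth of the strain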
Conditions: S. cerevisiae deletion strains, growth OD, locus YMR058W, strain fet3, active compounds read low
About 2,000 (36%) of roughly 5,500 compounds were called active. Roughly 18% stayed inconclusive and do not appear here. This is one part of the list.
Examples of molecules with documented normalized growth follow.
The response must contain the number and no unit.

Field: example entries. Status: answers known.
Nc1c2c(nc3ccccc13)CCCC2    0.979
Nc1c2c(nc3ccccc13)CCCC2O (stereo not given)    1.02
NNc1nncc2ccccc12    0.996
CCCCCCCCCCCC[C@H](C(=O)O)[C@@H](C)C(=O)O    0.998

Prompt: Give the reported normalized growth for this molecule. `Cc1cn([C@H]2C[C@H](N=[N+]=[N-])[C@@H](CO)O2)c(=O)[nH]c1=O`
Response: 1.02

----------
Assay: chemical genetic growth profiling, strain panel (AID 1159580);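 note: tested at 20 µM; growth read once vehicle control cultures reached saturation at 30 °C; 1 = growth at the plate median or of vehicle wells; lower values mean less growth of the strain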
Conditions: S. cerevisiae deletion strains, growth OD, locus YNL071W, strain lat1, active compounds read low
The campaign covered roughly 5,500 compounds. About 2,000 (36%) were called active. Another 18% or so got no clear call; they are omitted. Some of the results follow.
Value kind: normalized growth
The response must contain the number and no unit.

COc1cc(N)c(Cl)cc1C(=O)NC1CCN(Cc2ccccc2)CC1    0.997
Nc1c2c(nc3ccccc13)CCCC2    1
CC1=NS(=O)(=O)c2cc(Cl)ccc2N1    0.949
Cc1cc(O)cc(C)c1Cl    0.821
CC(C)=CCCC1(C)C=Cc2c(O)c3c(c(CC=C(C)C)c2O1)OC12C(=CCCC1C(C)(C)O[C@@]2(C/C=C(\C)C(=O)O)C(=O)O)C3=O (stereo partly drawn)    0.463
COc1cccc2c1C(=O)c1c(O)c3c(c(O)c1C2=O)C[C@@](O)(C(C)=O)C[C@@H]3O[C@H]1C[C@H](N)[C@H](O)[C@H](C)O1    0.848
Cc1cc(O)cc(O)c1C(=O)O    1.01

Next molecule, normalized growth to be filled in.
Prompt: Give the reported normalized growth for this molecule. CC(CC(=O)C1OC1(C)C)C1C(=O)CC2(C)C3=CCC4C(C)(C)C(OC5OCC(O)C(O)C5O)CCC45CC35C(O)CC12C (stereo not drawn)
Response: 1.01
